Molecular target: S100B (Homo sapiens, UniProt P04271)
Construct: made in house; host or cells: Escherichia coli BL21(DE3)
Sequence (P04271 whole entry): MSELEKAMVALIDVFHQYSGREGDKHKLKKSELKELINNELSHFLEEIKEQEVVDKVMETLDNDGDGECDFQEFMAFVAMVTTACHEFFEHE
Test: Pull-down assay with immobilized protein and LSM libraries
Assay type: binding
Settings: H14 library; 1:1 binding assumed; read-out: Surface mapping KD (apparent)
Description: Pull-down assays with immobilized test proteins and foldameric LSM libraries were carried out. Proteins were equilibrated with LSM probes, and equilibrium bound fractions (FB) were determined from the unbound fractions measured by HPLC-MS methods. Hits were corrected with background binding of the resin. […] MS data analysis. […] Using these processing setups, all raw data files were reprocessed together and analyzed. […]

| given-smiles | Kd [µM] |
| --- | --- |
| CC[C@H](C)[C@@H](CC(=O)N[C@H]1CCCC[C@@H]1C(=O)N[C@H]1CCCC[C@@H]1C(=O)N[C@@H](CCC(N)=O)CC(=O)N[C@H]1CCCC[C@@H]1C(N)=O)NC(=O)[C@H]1CCCC[C@@H]1N | 497 |
| NC(=O)CC[C@@H](CC(=O)N[C@H]1CCCC[C@@H]1C(N)=O)NC(=O)[C@H]1CCCC[C@@H]1NC(=O)[C@H]1CCCC[C@@H]1NC(=O)C[C@H](Cc1ccccc1)NC(=O)[C@H]1CCCC[C@@H]1N | 433 |
| NCCCC[C@@H](CC(=O)N[C@H]1CCCC[C@@H]1C(=O)N[C@H]1CCCC[C@@H]1C(=O)N[C@H](CC(=O)N[C@H]1CCCC[C@@H]1C(N)=O)Cc1ccc(O)cc1)NC(=O)[C@H]1CCCC[C@@H]1N | 63 |
| NC(=O)[C@H]1CCCC[C@@H]1NC(=O)C[C@H](Cc1c[nH]c2ccccc12)NC(=O)[C@H]1CCCC[C@@H]1NC(=O)[C@H]1CCCC[C@@H]1NC(=O)C[C@H](CCC(=O)O)NC(=O)[C@H]1CCCC[C@@H]1N | 305 |
